- Test system: RPMI-8226
- Method: CellTiter-Glo cell proliferation assay, RPMI-8226
- Conditions used: Homo sapiens, RPMI-8226, read-out: EC50 (μM) GDC-0941 (single agent)
Readout name: EC50 (µM)
Give bare numbers, in µM.

The reported value for CS(=O)(=O)N1CCN(Cc2cc3nc(-c4cccc5[nH]ncc45)nc(N4CCOCC4)c3s2)CC1 [GDC-0941] in terms of EC50 is 2.53

###

- Tested on: Jeko1
- Method: CellTiter-Glo cell proliferation assay, Jeko1
- Assay type: cell-based
- Conditions used: Homo sapiens, JeKo-1; Jeko1 (MCL), single agent, Table 2
Readout name: EC50 (nM)
Numbers only, in nM.

For reference, reported EC50 for CS(=O)(=O)N1CCN(Cc2cc3nc(-c4cccc5[nH]ncc45)nc(N4CCOCC4)c3s2)CC1 [GDC-0941] stands at 320
